Test: Plasma clearance was determined after administering 1 mg/kg of compound intravenously in rat no.9 belonging to the phenotype EM (extensive metaboliser)
Assay type: ADME, organism-based
Design: dose 1 mg/kg, route intravenous
Settings: iv
readout: clearance (mL/min/kg)
Unit mL/min/kg implied. Number only.

Give reported clearance value for COCCOc1cc2c(N3CCN(C(=O)Nc4ccc(C#N)cc4)CC3)ncnc2cc1OC
13.2

---

Test: Pharmacokinetic parameter (AUC) was determined after administering 1 mg/kg of compound intravenously in rat no.9 belonging to the phenotype EM (extensive metaboliser)
Assay type: ADME, organism-based
Set-up: dose 1 mg/kg, route intravenous
Details: in vivo, iv
readout: AUC (ng·h/mL)
Unit ng·h/mL implied. Number only.

Give reported AUC value for COCCOc1cc2c(N3CCN(C(=O)Nc4ccc(C#N)cc4)CC3)ncnc2cc1OC
1260
